- ASSAYED TARGET: AEA-DA lipid probe targets in Neuro2a cells (Mus musculus)
- TEST CONDITIONS: competitor 25 μM
Recorded SILAC ratio, Timm17a, one value per entry.
MEASURED QUANTITY: SILAC ratio, Timm17a

>  <COMPOUND>
CN1CCN(C(=O)c2c(-c3ccccc3)c3cc([N+](=O)[O-])ccc3n2C)CC1

>  <ASSAYED TARGET>
AEA-DA lipid probe targets in Neuro2a cells (Mus musculus)

>  <MEASURED QUANTITY>
SILAC ratio, Timm17a

>  <RECORDED MEASUREMENT>
1.5

$$$$
>  <COMPOUND>
O=C(/C=C/c1cccnc1)NCCCCC1CCN(C(=O)c2ccccc2)CC1 [FK-866, reference compound]

>  <ASSAYED TARGET>
AEA-DA lipid probe targets in Neuro2a cells (Mus musculus)

>  <MEASURED QUANTITY>
SILAC ratio, Timm17a

>  <RECORDED MEASUREMENT>
1.1

$$$$
>  <COMPOUND>
C=CCN(C)CCCCCCOc1ccc(C(=O)c2ccc(Br)cc2)c(F)c1 [Ro 48-8071, reference compound]

>  <ASSAYED TARGET>
AEA-DA lipid probe targets in Neuro2a cells (Mus musculus)

>  <MEASURED QUANTITY>
SILAC ratio, Timm17a

>  <RECORDED MEASUREMENT>
2.7

$$$$
>  <COMPOUND>
CN1CCN(C(=O)c2[nH]c3ccc([N+](=O)[O-])cc3c2-c2ccccc2)CC1

>  <ASSAYED TARGET>
AEA-DA lipid probe targets in Neuro2a cells (Mus musculus)

>  <MEASURED QUANTITY>
SILAC ratio, Timm17a

>  <RECORDED MEASUREMENT>
1.4

$$$$

---

Recorded SILAC ratio, Eci1, one value per entry.
- ASSAYED TARGET: AEA-DA lipid probe targets in Neuro2a cells (Mus musculus)
- TEST CONDITIONS: competitor 25 μM
MEASURED QUANTITY: SILAC ratio, Eci1

>  <COMPOUND>
CN1CCN(C(=O)c2[nH]c3ccc([N+](=O)[O-])cc3c2-c2ccccc2)CC1

>  <ASSAYED TARGET>
AEA-DA lipid probe targets in Neuro2a cells (Mus musculus)

>  <RECORDED MEASUREMENT>
2.0

$$$$
>  <COMPOUND>
C=CCN(C)CCCCCCOc1ccc(C(=O)c2ccc(Br)cc2)c(F)c1 [Ro 48-8071, reference compound]

>  <ASSAYED TARGET>
AEA-DA lipid probe targets in Neuro2a cells (Mus musculus)

>  <RECORDED MEASUREMENT>
0.9

$$$$
>  <COMPOUND>
O=C(/C=C/c1cccnc1)NCCCCC1CCN(C(=O)c2ccccc2)CC1 [FK-866, reference compound]

>  <ASSAYED TARGET>
AEA-DA lipid probe targets in Neuro2a cells (Mus musculus)

>  <RECORDED MEASUREMENT>
1.2

$$$$
>  <COMPOUND>
CN1CCN(C(=O)c2c(-c3ccccc3)c3cc([N+](=O)[O-])ccc3n2C)CC1

>  <ASSAYED TARGET>
AEA-DA lipid probe targets in Neuro2a cells (Mus musculus)

>  <RECORDED MEASUREMENT>
1.5

$$$$
